Attribution: patent US4565823A

# method: acute toxicity, rats (Wister)
# condition.notes: rat, in vivo, iv, rats (Wister) female
Counter-ions that a name gives are not always drawn.

- compound: "COC(=O)C1=C(C)NC(C)=C(C(=O)OCCN(C)Cc2ccccc2)C1c1cccc([N+](=O)[O-])c1 (stereo not shown) [Nicardipine hydrochloride]"
  LD50: "17.2 mg/kg"

---

# method: acute toxicity, mice (ICR)
# condition.notes: mouse, in vivo, iv, mice (ICR) female
Structures can show the parent of a compound that is named as a salt.

- molecule: "COC(=O)C1=C(C)NC(C)=C(C(=O)OCCN(C)Cc2ccccc2)C1c1cccc([N+](=O)[O-])c1 (stereo not shown) [Nicardipine hydrochloride]"
  measurement.unit: "mg/kg"
  LD50: 19.9

---

# method: acute toxicity, rats (S.D.)
# condition.notes: rat, in vivo, iv, rats (S.D.) female
# Description: Nicardipine hydrochloride is a low toxicity compound, and this fact is confirmed by acute toxicity examination experiment.
Structures can show the parent of a compound that is named as a salt.
measure.name: LD50 (mg/kg)

- compound: "COC(=O)C1=C(C)NC(C)=C(C(=O)OCCN(C)Cc2ccccc2)C1c1cccc([N+](=O)[O-])c1 (stereo not shown) [Nicardipine hydrochloride]"
  measure.name: "LD50"
  numeric.result: 25

---

# method: acute toxicity, mice (ICR)
# condition.notes: mouse, in vivo, sc, mice (ICR) female
Where a name gives a salt, the structure may show the parent alone.

- molecule: "COC(=O)C1=C(C)NC(C)=C(C(=O)OCCN(C)Cc2ccccc2)C1c1cccc([N+](=O)[O-])c1 (stereo not shown) [Nicardipine hydrochloride]"
  LD50, mg/kg: 710

---

# method: acute toxicity, mice (ICR)
# condition.notes: mouse, in vivo, iv, mice (ICR) male
measure.name: LD50

- compound: "COc1ccc(Cc2nccc3cc(OC)c(OC)cc23)cc1OC [papaverine]"
  measure.name: "LD50"
  result: "27 mg/kg"

---

# method: acute toxicity, rats (S.D.)
# condition.notes: rat, in vivo, po, rats (S.D.) female
Where a name gives a salt, the structure may show the parent alone.
measure.name: LD50

- compound: "COC(=O)C1=C(C)NC(C)=C(C(=O)OCCN(C)Cc2ccccc2)C1c1cccc([N+](=O)[O-])c1 (stereo not shown) [Nicardipine hydrochloride]"
  result: "557 mg/kg"

---

# method: acute toxicity, mice (ICR)
# condition.notes: mouse, in vivo, po, mice (ICR) male
Structures can show the parent of a compound that is named as a salt.
measure.name: LD50 (mg/kg)

- compound: "COC(=O)C1=C(C)NC(C)=C(C(=O)OCCN(C)Cc2ccccc2)C1c1cccc([N+](=O)[O-])c1 (stereo not shown) [Nicardipine hydrochloride]"
  measure.name: "LD50"
  measurement.unit: "mg/kg"
  numeric.result: 634

---

# method: acute toxicity, dog (mongrel)
# Assay type: in vivo
# condition.notes: in vivo, iv, only a range in parentheses printed
Counter-ions that a name gives are not always drawn.

- molecule: "COC(=O)C1=C(C)NC(C)=C(C(=O)OCCN(C)Cc2ccccc2)C1c1cccc([N+](=O)[O-])c1 (stereo not shown) [Nicardipine hydrochloride]"
  LD50: "5 to 8.1 mg/kg"

---

# method: acute toxicity, mice (ICR)
# condition.notes: mouse, in vivo, po, mice (ICR) female
# Source text: Nicardipine hydrochloride is a low toxicity compound, and this fact is confirmed by acute toxicity examination experiment.
Counter-ions that a name gives are not always drawn.

- molecule: "COC(=O)C1=C(C)NC(C)=C(C(=O)OCCN(C)Cc2ccccc2)C1c1cccc([N+](=O)[O-])c1 (stereo not shown) [Nicardipine hydrochloride]"
  measurement.unit: "mg/kg"
  LD50: 650

---

# method: acute toxicity, rats (S.D.)
# condition.notes: rat, in vivo, po, rats (S.D.) male
Structures can show the parent of a compound that is named as a salt.

- compound: "COC(=O)C1=C(C)NC(C)=C(C(=O)OCCN(C)Cc2ccccc2)C1c1cccc([N+](=O)[O-])c1 (stereo not shown) [Nicardipine hydrochloride]"
  LD50: "643 mg/kg"

---

# method: acute toxicity, rats (Wister)
# condition.notes: rat, in vivo, iv, rats (Wister) male
Counter-ions that a name gives are not always drawn.

- compound: "COc1ccc(Cc2nccc3cc(OC)c(OC)cc23)cc1OC [papaverine]"
  measurement.unit: "mg/kg"
  LD50: 13.3
- compound: "COC(=O)C1=C(C)NC(C)=C(C(=O)OCCN(C)Cc2ccccc2)C1c1cccc([N+](=O)[O-])c1 (centres unmarked) [Nicardipine hydrochloride]"
  measurement.unit: "mg/kg"
  LD50: 15.5
